Hey, just so you know, these numbers are from the supplement of paper PMC9170038.

Tested on: MS2 coat protein
Assay: apparent KD of MS2 coat protein; higher = weaker reporter binding
Conditions: Eterna round: R107; input ligand: arginine 13.2 mM
Below, each entry is listed alongside its reported apparent KD of MS2 coat protein.
Reply numerically in nM, unit not repeated.

UUGUUGUUUGGAAGGAGCGUGGAUGAGUGUGGACAUGAGGAUCACCCAUGUUGGAUGAUACCGCAGGUAGGUCGCCGGGUGGUGG [11.aD] ... 89.7
AAAUGUGUAAAAGCUUUAACACCCUGAGAAGGAGCGCAAUAAAUUGCAGGUAGGUCGCUCAGACAUGAGGAUCACCCAUGUAACC [Atrabeor] ... 45.7

Enquiry: Could you share what apparent KD of MS2 coat protein was measured for CGCCCAGUUACGGCCGCCACUUCGAUGGCAAAUGUCGAGCCUCCACAUGAGGAUCACCCAUGUCGAAGGACCGGGUACUGCUUGC [theeternabot_sameState_MS2_Trp_B_17] , tested on MS2 coat protein?
Return: 29.4

Enquiry: Could you share what apparent KD of MS2 coat protein was measured for AGCGACAUGCGUGAUACCAGCUACAUGAGGAUCACCCAUGUGAGUAGGAAACUACUGUGUAGCCCUUGGCAGCACAGUGCAUGUC [Exclusion - Theophylline B (Freestyle 25)] , tested on MS2 coat protein?
Return: 11.4

Enquiry: Could you share what apparent KD of MS2 coat protein was measured for `GGGUACAUCGCGGCCGCCACUUGUGUAAAUACAUGAGGAUCACCCAUGUCGAUGGAGACAUCGGAGAGGACCGGGUGAUGUACCG` , tested on MS2 coat protein?
Return: 70.7

Enquiry: Could you share what apparent KD of MS2 coat protein was measured for ACAAGUCCUCAUGAUACCAGCGAUGAGACAAAGUCUCAACAUGAGGAUCACCCAUGUACUCGCCCUUGGCAGCAUACGGUUUUUG [Onedxequla] , tested on MS2 coat protein?
Return: 139

Enquiry: Could you share what apparent KD of MS2 coat protein was measured for GGGCGAGUGGAGCGGCGUGCUCCGCUCCGUCGAGGACCGGUACGGCCGCCACUCGACAUGAGGAUCACCCAUGUGCGAGCUCGCG [#1 Exclusion - Tryptophan A Attempt #13 (HarryS)] , tested on MS2 coat protein?
Return: 7.39

Enquiry: Could you share what apparent KD of MS2 coat protein was measured for AAUAUAAGUGUAAUUAUAUUUAUAUCUGAUACCAGACUCUCAUGUGUCCCUUGGCAGCAGUUACAUGAGGAUCACCCAUGUAUUA [JR_Nu_SSTheophyA_Sub025] , tested on MS2 coat protein?
Return: 30.6

Enquiry: Could you share what apparent KD of MS2 coat protein was measured for CUCGUCAACUCGGCCGCCACUGACGUGUGGUCAGGCCUGUAGAAACACAUGAGGAUCACCCAUGUCAGGACCGGGAGCUUUAUUA [theeternabot_exclusion_MS2_Trp_B_26] , tested on MS2 coat protein?
Return: 31.8

Enquiry: Could you share what apparent KD of MS2 coat protein was measured for `UGUAUGUGAUCUGAUACCAGCGAUGAUAACCUGAGGAUCACCCUGGUAUGGCGAAAGCCUCGCCCUUGGCAGCAGAUCGCAUACU` , tested on MS2 coat protein?
Return: 184

Enquiry: Could you share what apparent KD of MS2 coat protein was measured for AAACGUUGCUGCGAUACCAGACAUGAGGAUCACCCAUGUACCAAGGUACGAAAAUAACAUGUCCCUUGGCAGCGCAGCAACGAAA [MAT - Exclusion Theophlline B - Mod of Eli - D6] , tested on MS2 coat protein?
Return: 15.7

Enquiry: Could you share what apparent KD of MS2 coat protein was measured for GGUUAGGUUUUUGAUACCAGCUAUUGGUGUCAUCUGAGGAUCACCCAGGUCUUGUGUUUUAGCCCUUGGCAGCAAAAGUUUAGUC [SSTheo B #28] , tested on MS2 coat protein?
Return: 72.6
